molecular target: CTX-M15 β-lactamase (Escherichia coli, UniProt Q9EXV5); construct: expressed as native untagged proteins; made in house; host or cells: E. coli BL21(DE3); assay: β-lactamase enzyme inhibition assay (nitrocefin substrate), CTXM-15; assay type: biochemical
Sequence (Q9EXV5 entry or part of it): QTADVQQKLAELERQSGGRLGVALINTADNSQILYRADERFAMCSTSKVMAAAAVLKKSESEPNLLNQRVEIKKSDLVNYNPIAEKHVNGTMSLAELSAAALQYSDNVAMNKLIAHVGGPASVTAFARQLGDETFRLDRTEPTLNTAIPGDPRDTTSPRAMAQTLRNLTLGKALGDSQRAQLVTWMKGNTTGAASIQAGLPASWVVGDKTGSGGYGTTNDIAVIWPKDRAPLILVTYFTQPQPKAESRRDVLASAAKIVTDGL
pIC50: −log10 of the molar value.
Binary call on pIC50: met from 8 upward, not met beneath that.

Record excerpt, results attached:
compound=CN(C)Cc1ccc(CC(=O)N[C@@H](Cc2cccc(C(=O)O)c2O)B(O)O)cc1 label_class=met
compound=O=C(N[C@@H](Cc1cccc(C(=O)O)c1O)B(O)O)c1cccc(CN(CCO)CCO)c1 label_class=met
compound=CNCc1cccc(C(=O)N[C@@H](Cc2cccc(C(=O)O)c2O)B(O)O)c1 label_class=met
compound="Cl.O=C(N[C@@H](Cc1cccc(C(=O)O)c1O)B(O)O)c1ccc(CNCc2cccnc2)cc1 [Example 17, hydrochloride]" label_class=met

Exam item: Check this compound for pIC50 at or above 8: `O=C(N[C@@H](Cc1cccc(C(=O)O)c1O)B(O)O)c1ccc(C[n+]2ccccc2)cc1`
Marked response: met

Exam item: Determine whether measured pIC50 meets or exceeds 8 for `O=C(N[C@@H](Cc1cccc(C(=O)O)c1O)B(O)O)c1cccc(CNc2cccnc2)c1`
Marked response: met

Exam item: // inclusive: pIC50 at least 8? input: `O=C(N[C@@H](Cc1cccc(C(=O)O)c1O)B(O)O)c1cccc(CNCCCO)c1`
Marked response: met
